target: Integrin alpha-V/beta-1 (Homo sapiens, UniProt P05556+P06756); experiment: Inhibition of integrin alphaVbeta1 (unknown origin)-mediated CHO cell adhesion to fibronectin preincubated for 15 to 30 mins followed by 60 min incubation for adhesion by crystal violet staining based cell adhesion assay; conditions: read-out: IC50
Sequence (P05556 21-798 limits assumed): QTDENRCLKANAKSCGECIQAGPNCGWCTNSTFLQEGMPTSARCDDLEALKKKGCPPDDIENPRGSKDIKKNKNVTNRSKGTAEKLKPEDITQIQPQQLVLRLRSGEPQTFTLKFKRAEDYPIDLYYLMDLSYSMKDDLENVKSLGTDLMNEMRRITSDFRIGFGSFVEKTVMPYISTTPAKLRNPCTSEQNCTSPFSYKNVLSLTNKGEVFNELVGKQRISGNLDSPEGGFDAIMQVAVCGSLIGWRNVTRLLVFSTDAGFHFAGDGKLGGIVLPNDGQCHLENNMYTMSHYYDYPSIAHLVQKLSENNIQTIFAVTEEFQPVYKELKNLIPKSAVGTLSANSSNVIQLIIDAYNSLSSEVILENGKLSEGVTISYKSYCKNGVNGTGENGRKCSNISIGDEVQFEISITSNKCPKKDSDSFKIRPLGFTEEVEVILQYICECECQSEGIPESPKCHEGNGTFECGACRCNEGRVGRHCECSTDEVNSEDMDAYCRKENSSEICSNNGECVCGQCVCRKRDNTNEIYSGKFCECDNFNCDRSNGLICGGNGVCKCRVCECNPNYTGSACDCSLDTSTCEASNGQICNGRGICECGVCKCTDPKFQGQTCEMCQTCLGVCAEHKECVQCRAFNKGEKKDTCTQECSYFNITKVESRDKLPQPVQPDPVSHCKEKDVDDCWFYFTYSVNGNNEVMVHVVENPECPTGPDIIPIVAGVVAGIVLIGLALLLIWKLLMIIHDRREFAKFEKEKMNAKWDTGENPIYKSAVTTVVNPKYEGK
Sequence (P06756 31-889 limits assumed): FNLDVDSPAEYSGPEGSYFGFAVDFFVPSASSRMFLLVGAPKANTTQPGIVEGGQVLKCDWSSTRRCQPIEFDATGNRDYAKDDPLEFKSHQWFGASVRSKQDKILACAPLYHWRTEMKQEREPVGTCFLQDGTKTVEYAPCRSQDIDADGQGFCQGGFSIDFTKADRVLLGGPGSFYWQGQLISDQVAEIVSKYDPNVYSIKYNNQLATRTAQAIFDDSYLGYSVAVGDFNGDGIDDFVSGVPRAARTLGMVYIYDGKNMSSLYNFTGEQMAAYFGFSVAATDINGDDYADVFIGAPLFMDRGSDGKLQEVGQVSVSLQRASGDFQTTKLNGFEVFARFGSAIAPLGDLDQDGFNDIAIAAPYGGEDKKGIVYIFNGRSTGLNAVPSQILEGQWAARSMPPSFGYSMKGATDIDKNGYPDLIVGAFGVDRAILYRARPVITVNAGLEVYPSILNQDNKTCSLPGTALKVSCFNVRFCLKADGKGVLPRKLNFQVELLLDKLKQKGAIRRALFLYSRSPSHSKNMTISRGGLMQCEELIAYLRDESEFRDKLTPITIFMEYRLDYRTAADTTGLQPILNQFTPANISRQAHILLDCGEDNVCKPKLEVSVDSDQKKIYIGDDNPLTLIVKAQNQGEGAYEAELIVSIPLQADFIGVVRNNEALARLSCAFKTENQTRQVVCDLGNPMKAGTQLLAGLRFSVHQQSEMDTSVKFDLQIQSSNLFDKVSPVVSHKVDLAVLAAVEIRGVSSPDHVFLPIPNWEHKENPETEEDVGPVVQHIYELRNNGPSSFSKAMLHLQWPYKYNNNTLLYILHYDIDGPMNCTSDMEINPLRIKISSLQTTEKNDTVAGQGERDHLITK
Sequence (P06756 891-1048 limits assumed): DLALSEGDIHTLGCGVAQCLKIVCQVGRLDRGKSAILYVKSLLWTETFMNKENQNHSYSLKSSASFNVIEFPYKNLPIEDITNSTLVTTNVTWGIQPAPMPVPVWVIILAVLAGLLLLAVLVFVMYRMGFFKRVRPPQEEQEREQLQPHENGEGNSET
METRIC: IC50 (nM)

                           smiles_structure  readout_unit  reported_result
0  N=C(N)NCCCCC(=O)Nc1ccc(C[C@H](NC(=O)[C@@H]2CCCN2S(=O)(=O)c2cccc([N+](=O)[O-])c2)C(=O)O)cc1            nM               13
1  N=C(N)NCCCCC(=O)Nc1ccc(C[C@H](NC(=O)[C@@H]2CCCN2S(=O)(=O)c2ccccc2)C(=O)O)cc1            nM             0.63
2  N=C(N)NCCCCC(=O)Nc1ccc(C[C@H](NC(=O)[C@@H]2CCN2S(=O)(=O)c2ccccc2)C(=O)O)cc1            nM              160

[1] CC1(C)SCN(S(=O)(=O)c2ccccc2)[C@@H]1C(=O)N[C@@H](Cc1ccc(NC(=O)CCCCNC(=N)N)cc1)C(=O)O
[2] N=C(N)NCCCC(=O)Nc1ccc(C[C@H](NC(=O)[C@@H]2CCCN2S(=O)(=O)c2ccccc2)C(=O)O)cc1
[3] N=C(N)NCCCCC(=O)Nc1ccc(C[C@H](NC(=O)[C@@H]2CCCN2S(=O)(=O)c2cccnc2)C(=O)O)cc1
Reorder: IC50, max to min. Write the labels in rank order as requested.
1, 3, 2
